Data provenance: patent US5817776A

Test: in vivo
Conditions: rat, in vivo, iv, Lung, Mean % Injected Dose/Gram
endpoint: tissue uptake at 1 h (%ID/g)
Give just the numeric value; %ID/g need not be written.

Incoming: What value of measured tissue uptake at 1 h is listed for NC1(C(=O)O)CC([18F])C1 (stereo not shown) [[^18 F]FACBC] ?
Outgoing: 0.64

###

Assay: in vivo
Settings: rat, in vivo, iv, Spleen, Mean % Injected Dose/Gram
endpoint: tissue uptake at 1 h (%ID/g)
Give just the numeric value; %ID/g need not be written.

Incoming: What value of measured tissue uptake at 1 h is listed for NC1(C(=O)O)CC([18F])C1 (stereo not shown) [[^18 F]FACBC] ?
Outgoing: 0.68
